# target.desc: PI3Kδ (Homo sapiens)
# Sequence (O00329 1-1044): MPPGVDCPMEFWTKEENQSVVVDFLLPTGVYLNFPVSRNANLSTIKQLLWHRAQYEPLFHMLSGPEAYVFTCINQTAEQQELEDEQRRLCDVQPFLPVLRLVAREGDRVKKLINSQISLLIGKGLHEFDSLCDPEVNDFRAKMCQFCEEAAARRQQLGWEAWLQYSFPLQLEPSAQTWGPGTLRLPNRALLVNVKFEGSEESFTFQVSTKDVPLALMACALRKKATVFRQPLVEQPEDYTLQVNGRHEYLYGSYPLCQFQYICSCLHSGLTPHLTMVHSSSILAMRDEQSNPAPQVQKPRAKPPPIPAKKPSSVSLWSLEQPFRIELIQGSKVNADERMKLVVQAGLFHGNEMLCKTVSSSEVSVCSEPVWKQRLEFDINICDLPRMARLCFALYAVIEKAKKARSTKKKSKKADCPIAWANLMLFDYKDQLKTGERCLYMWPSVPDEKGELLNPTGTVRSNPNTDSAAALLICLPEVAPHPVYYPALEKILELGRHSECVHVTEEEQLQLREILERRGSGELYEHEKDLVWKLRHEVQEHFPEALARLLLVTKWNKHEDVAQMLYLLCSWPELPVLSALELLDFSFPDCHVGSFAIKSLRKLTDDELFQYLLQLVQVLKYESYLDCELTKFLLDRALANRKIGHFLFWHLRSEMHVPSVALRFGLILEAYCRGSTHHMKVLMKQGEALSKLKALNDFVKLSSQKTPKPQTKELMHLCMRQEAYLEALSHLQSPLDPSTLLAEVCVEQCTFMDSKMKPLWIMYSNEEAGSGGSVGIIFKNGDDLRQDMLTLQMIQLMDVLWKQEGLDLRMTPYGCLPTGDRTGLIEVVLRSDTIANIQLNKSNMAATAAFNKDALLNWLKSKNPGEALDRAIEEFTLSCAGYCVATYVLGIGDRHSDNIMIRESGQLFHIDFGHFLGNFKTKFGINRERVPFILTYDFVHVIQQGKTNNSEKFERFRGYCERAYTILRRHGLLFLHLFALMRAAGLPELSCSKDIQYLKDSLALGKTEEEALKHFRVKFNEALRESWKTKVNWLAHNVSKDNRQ
observable: Kd

Some entries whose results are on file:
molecule: CC(Nc1cc(F)cc(F)c1)c1cc(CN2CCO[C@H](CO)C2)cc2ncc(N3CCOCC3)nc12 (single isomer, unassigned) [Compound 196]
target.desc: PI3Kδ (Homo sapiens)
Kd: 0.813 µM
//
molecule: CC(Nc1cc(F)cc(F)c1)c1cc(CN2CCOCC23COC3)cc2ncc(N3CCOCC3)nc12 (single isomer, unassigned)
target.desc: PI3Kδ (Homo sapiens)
Kd: > 30.2 µM

Shifting focus to the molecule that follows.
Query CC(Oc1cc(F)c(F)c(F)c1)c1cc(C(=O)N(C)C2CCNC2)cc2ncc(N3CCOCC3)nc12 (single isomer, unassigned) [Compound 404a] yields Kd of > 30.2 µM

###

# maps each entry to its Kd
# target.desc: kinase enzymes (Homo sapiens, UniProt P48736)
# Construct: purchased DiscoveRx Corporation, San Diego (contract service, KINOMEscan)
# Sequence (P48736 whole entry): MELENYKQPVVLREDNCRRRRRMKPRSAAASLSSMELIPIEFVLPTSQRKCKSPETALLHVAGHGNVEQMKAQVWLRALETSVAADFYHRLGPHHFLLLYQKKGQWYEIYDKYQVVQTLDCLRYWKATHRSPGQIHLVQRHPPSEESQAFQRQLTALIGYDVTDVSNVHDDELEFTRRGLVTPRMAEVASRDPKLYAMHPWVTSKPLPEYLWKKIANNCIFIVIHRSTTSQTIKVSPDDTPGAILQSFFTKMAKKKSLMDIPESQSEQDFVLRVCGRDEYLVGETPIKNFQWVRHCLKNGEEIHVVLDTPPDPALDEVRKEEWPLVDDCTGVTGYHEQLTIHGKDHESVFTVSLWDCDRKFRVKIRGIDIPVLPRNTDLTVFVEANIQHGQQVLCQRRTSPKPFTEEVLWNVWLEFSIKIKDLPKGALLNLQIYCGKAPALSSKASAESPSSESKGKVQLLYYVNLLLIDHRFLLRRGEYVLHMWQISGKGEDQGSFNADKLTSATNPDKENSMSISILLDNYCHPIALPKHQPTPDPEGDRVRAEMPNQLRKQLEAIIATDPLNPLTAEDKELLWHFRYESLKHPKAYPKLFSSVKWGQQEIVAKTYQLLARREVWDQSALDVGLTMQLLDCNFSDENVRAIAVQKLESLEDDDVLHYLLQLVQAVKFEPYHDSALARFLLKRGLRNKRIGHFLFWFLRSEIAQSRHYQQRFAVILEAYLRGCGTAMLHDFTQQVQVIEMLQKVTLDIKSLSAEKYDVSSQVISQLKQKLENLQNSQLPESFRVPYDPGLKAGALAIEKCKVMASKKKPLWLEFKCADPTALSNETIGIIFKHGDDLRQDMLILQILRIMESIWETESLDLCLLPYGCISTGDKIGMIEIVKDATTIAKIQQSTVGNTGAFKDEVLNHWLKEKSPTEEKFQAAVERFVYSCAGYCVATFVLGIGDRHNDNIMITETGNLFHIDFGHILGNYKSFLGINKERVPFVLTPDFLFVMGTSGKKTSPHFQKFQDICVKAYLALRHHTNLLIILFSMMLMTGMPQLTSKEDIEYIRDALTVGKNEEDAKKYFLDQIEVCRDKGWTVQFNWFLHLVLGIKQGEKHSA
# procedure.details: Enzyme binding assay (KINOMEscan, DiscoveRx), further kinases of Table A
# condition.info: PIK3Cγ_h

Some entries whose results are on file:
compound: COC1CN(Cc2cc(C(C)Nc3cc(F)cc(F)c3)c3nc(N4CCOCC4)cnc3c2)CC1OC (single isomer, unassigned) [Compound 205]
Kd: > 30.2 µM
--
compound: CC(Nc1cc(F)cc(F)c1)c1cc(CNCC(F)(F)F)cc2ncc(N3CCOCC3)nc12 (single isomer, unassigned) [Compound 163]
Kd: > 30.2 µM

Shifting focus to the compound that follows.
Readout Kd for Cc1ccc(NC(C)c2cc(C(=O)NCCO)cc3ncc(N4CCOCC4)nc23)cc1F (single isomer, unassigned) [Compound 295a] , test system kinase enzymes (Homo sapiens, UniProt P48736), was > 30.2 µM

###

pKd: −log10 of the molar value.
# pKd measurements, system: kinase enzymes (Homo sapiens, UniProt P42336)
# Sequence (P42336 whole entry): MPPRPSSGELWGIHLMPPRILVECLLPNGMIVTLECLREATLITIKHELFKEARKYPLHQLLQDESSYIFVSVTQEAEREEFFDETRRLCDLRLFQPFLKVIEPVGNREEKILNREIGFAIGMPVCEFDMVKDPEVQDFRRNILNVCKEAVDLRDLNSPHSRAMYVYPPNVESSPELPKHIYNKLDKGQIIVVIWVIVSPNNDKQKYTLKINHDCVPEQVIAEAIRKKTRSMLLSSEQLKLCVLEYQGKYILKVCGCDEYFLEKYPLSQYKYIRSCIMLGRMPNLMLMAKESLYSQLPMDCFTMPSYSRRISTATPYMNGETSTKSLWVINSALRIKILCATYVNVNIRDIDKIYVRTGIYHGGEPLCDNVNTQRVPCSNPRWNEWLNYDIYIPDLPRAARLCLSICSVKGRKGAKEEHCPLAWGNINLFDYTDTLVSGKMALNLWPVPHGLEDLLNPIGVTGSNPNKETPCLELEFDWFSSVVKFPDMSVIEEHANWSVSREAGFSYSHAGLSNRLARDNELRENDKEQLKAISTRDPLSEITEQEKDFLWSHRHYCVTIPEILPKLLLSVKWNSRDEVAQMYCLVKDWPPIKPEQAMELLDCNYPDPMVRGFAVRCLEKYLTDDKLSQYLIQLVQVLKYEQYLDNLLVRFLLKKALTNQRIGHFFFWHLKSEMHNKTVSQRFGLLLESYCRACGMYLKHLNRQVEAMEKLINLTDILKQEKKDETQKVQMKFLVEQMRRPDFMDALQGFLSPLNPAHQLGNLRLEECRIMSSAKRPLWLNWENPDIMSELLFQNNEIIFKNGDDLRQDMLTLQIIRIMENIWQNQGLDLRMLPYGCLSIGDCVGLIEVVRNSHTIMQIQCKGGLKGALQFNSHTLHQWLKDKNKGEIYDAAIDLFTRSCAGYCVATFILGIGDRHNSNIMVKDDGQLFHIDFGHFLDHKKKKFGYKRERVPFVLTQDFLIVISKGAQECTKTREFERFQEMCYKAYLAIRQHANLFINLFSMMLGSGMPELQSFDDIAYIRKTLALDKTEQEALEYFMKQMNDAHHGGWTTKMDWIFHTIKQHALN

compound: COCCNC(=O)c1cc(C(C)Nc2cc(F)cc(F)c2)c2nc(N3CCOCC3)cnc2c1 (single isomer, unassigned)
pKd: < 4.52

compound: CNCCN(C)C(=O)c1cc(C(C)Oc2cc(F)c(F)c(F)c2)c2nc(N3CCOCC3)cnc2c1 (stereo not shown) [Compound 379a]
pKd: 5.01

compound: CNCCOCCN(C)C(=O)c1cc(C(C)Nc2ccc(F)c(F)c2)c2nc(N3CCOCC3)cnc2c1 (single isomer, unassigned) [Compound 345b]
pKd: < 4.52

compound: CN(C)C(=O)c1cc(C2CCCN2c2cc(F)cc(F)c2)c2nc(N3CCOCC3)cnc2c1 (stereo not shown)
pKd: 6.76

compound: CC(Nc1ccc(F)c(F)c1)c1cc(C(=O)N2CCC[C@H](O)C2)cc2ncc(N3CCOCC3)nc12 (single isomer, unassigned) [Compound 302a]
pKd: < 4.52

compound: CN[C@H]1CCN(C(=O)c2cc(C(C)Oc3cc(F)c(F)c(F)c3)c3nc(N4CCOCC4)cnc3c2)C1 (single isomer, unassigned) [Compound 405a]
pKd: < 4.52

Shifting focus to the compound that follows.
Readout pKd for COC(=O)c1cc(C(C)Nc2cc(F)cc(F)c2)c2nc(N3CCOCC3)cnc2c1 (stereo not shown) [Compound 235] , test system kinase enzymes (Homo sapiens, UniProt P42336), was < 4.49

###

# target.desc: UniProt:P42336
pKd: −log10 of the molar value.
observable: pKd

molecule: CNCCNC(=O)c1cc(C(C)Nc2cccc(F)c2)c2nc(N3CCOCC3)cnc2c1 (single isomer, unassigned)
observable: pKd
measured: 5.42

molecule: CC(Nc1cc(F)cc(F)c1)c1cc(CO)cc2ncc(N3CCOCC3)nc12 (single isomer, unassigned) [Compound 154b]
observable: pKd
measured: 4.68

molecule: CC(Nc1cc(F)cc(F)c1)c1cc(C(=O)NS(N)(=O)=O)cc2ncc(N3CCOCC3)nc12 (single isomer, unassigned) [Compound 243b]
observable: pKd
measured: 5.78

molecule: CC(Oc1cccc(F)c1)c1cc(CO)cc2ncc(N3CCOCC3)nc12 (single isomer, unassigned)
observable: pKd
measured: 5.14

molecule: CC(c1cc(CO)cc2ncc(N3CCOCC3)nc12)N(C)c1cccc(F)c1 (centres unmarked)
observable: pKd
measured: 5.22

molecule: CC(C)NCCNC(=O)c1cc(C(C)Oc2ccc(F)c(F)c2)c2nc(N3CCOCC3)cnc2c1 (single isomer, unassigned) [Compound 286a]
observable: pKd
measured: 4.99

[I] CN[C@H]1CCN(C(=O)c2cc(C(C)Nc3cc(F)c(F)c(F)c3)c3nc(N4CCOCC4)cnc3c2)C1 (single isomer, unassigned) [Compound 297b]
[II] O=C(O)c1cc(C2CCCN2c2cc(F)cc(F)c2)c2nc(N3CCOCC3)cnc2c1 (single isomer, unassigned) [Compound 251]
[III] CC(Nc1cc(F)c(F)c(F)c1)c1cc(C(=O)NCCN(C)C)cc2ncc(N3CCOCC3)nc12 (single isomer, unassigned) [Compound 309b]
*Q* Descending sort on pKd required. Note for the reader: the ranking is given by listing the labels in the order requested.
*A* II, I, III
(II: 8.10, I: 5.99, III: 5.31)

[A] CC(C)NCCN(C)C(=O)c1cc(NCc2cc(F)cc(F)c2)c2nc(N3CCOCC3)cnc2c1
[B] CN[C@H]1CCN(C(=O)c2cc(C(C)Nc3cc(F)c(F)c(F)c3)c3nc(N4CCOCC4)cnc3c2)C1 (single isomer, unassigned) [Compound 297a]
*Q* # query: argmin of pKd over A and B Select an item and report its label.
*A* B

###

# Kd measurements, system: kinase enzymes (Homo sapiens)
observable: Kd (µM)

compound: OCc1cc(C2CCCN2c2cc(F)cc(F)c2)c2nc(N3CCOCC3)cnc2c1 (stereo not shown) [Compound 10]
target.desc: kinase enzymes (Homo sapiens)
measured: 0.142

compound: CC(C)NCCNC(=O)c1cc(C(C)Nc2ccc(Cl)c(F)c2)c2nc(N3CCOCC3)cnc2c1 (single isomer, unassigned) [Compound 312b]
target.desc: kinase enzymes (Homo sapiens)
measured: 5.13

compound: CC(Nc1ccc(F)c(F)c1)c1cc(C(=O)N(C)C2CCNC2)cc2ncc(N3CCOCC3)nc12 (stereo not shown) [Compound 323b]
target.desc: kinase enzymes (Homo sapiens)
measured: 3.8

compound: CNCCNC(=O)c1cc(C(C)Nc2cc(F)cc(F)c2)c2nc(N3CCOCC3)cnc2c1 (single isomer, unassigned) [Compound 406b]
target.desc: kinase enzymes (Homo sapiens)
measured: 7.41

[P] CC(Nc1cccc(F)c1)c1cc(C(=O)NC[C@@H](C)O)cc2ncc(N3CCOCC3)nc12 (single isomer, unassigned) [Compound 338a]
[Q] O=C(c1cc(C2CCCN2c2cc(F)cc(F)c2)c2nc(N3CCOCC3)cnc2c1)N1CCC[C@H]1CO (mixture of isomers) [Compound 64]
[R] CNCCNC(=O)c1cc([C@H](C)Oc2cccc(F)c2)c2nc(N3CCOCC3)cnc2c1 [Compound 123a]
[S] CC(Oc1cc(F)cc(F)c1)c1cc(C(=O)N(C)CCO)cc2ncc(N3CCOCC3)nc12 (single isomer, unassigned) [Compound 61]
*Q* Rank ascending by Kd. Note for the reader: the ranking is given by listing the labels in the order requested.
*A* Q, S, P, R
(Q: 0.224 µM, S: 0.676 µM, P: 1.51 µM, R: 10.2 µM)
